Just for reference, patent US8471005B2 is where these values come from.

- assay.target: ALK (Homo sapiens, UniProt Q9UM73)
- Construct: host or cells: baculovirus expression system
- Sequence (Q9UM73 19-1620): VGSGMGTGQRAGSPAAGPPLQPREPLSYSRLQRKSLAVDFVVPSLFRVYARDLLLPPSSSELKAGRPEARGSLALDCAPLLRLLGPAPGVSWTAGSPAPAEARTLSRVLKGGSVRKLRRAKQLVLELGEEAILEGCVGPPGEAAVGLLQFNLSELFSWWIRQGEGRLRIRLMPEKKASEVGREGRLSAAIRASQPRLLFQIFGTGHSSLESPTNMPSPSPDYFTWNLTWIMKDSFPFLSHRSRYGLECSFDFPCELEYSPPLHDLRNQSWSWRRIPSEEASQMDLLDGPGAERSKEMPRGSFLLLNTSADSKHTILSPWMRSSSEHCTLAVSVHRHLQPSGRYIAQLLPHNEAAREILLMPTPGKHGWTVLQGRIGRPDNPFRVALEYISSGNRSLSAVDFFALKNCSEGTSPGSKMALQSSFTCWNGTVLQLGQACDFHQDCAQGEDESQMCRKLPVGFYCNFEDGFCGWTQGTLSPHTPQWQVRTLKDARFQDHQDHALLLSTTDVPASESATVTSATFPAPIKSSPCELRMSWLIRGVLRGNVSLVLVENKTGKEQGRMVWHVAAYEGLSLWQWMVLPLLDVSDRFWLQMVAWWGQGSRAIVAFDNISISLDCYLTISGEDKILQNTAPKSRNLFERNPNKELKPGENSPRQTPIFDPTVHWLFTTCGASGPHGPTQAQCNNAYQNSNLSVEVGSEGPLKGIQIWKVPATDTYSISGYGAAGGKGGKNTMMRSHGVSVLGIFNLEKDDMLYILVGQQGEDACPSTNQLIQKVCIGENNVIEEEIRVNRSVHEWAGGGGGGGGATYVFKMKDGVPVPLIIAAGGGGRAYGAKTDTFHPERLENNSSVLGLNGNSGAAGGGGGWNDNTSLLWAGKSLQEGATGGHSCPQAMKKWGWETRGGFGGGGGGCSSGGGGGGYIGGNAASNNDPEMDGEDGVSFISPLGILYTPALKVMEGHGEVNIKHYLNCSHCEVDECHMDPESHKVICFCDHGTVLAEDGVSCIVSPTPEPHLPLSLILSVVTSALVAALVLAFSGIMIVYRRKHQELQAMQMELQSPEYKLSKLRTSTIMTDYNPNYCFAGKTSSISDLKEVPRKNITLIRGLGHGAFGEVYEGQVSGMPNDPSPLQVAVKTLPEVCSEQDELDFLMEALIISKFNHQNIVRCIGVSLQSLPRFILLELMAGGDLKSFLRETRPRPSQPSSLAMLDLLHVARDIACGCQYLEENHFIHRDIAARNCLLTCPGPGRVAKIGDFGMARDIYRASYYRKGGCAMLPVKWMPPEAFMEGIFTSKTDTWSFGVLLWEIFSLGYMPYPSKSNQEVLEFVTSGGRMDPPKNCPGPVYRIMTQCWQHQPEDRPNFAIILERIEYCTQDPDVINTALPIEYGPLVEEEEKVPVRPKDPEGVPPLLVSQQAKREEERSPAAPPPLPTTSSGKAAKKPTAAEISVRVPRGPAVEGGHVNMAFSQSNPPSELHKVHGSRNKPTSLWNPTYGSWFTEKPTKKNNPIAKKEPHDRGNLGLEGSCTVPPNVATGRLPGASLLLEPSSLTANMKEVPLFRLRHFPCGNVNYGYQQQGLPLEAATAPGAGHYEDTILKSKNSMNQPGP
- procedure.summary: ALK Kinase Assay (ELISA/TRF, PLC-γ substrate)
- Type: biochemical
- setup.conditions: ALK kinase inhibition, 1 μM ATP; read-out: ALK Potency
Give measured IC50 for each item. Keep answers brief.

Q: Look up IC50: c1c[nH]c(-c2ccc3cnc(Nc4ccc(N5CCOCC5)cc4)nn23)c1 [Example 1291]
Ans: 1 to 10 µM

Q: Now the same for COc1ccc(CN2CCN(C)CC2)cc1Nc1ncc2ccc(-c3ccccc3N(C)S(C)(=O)=O)n2n1 [Example 497]
Ans: 1 to 10 µM

Q: Here is the next molecule: COc1cc(N2CCC(N(C)C)CC2)ccc1Nc1ncc2ccc(-c3ccccc3OC)n2n1 [Example 476]
Ans: < 0.1 µM

Q: Now consider CC(C)S(=O)(=O)c1cccc(-c2ccc3cnc(Nc4ccc(C5CCN(CC(N)=O)CC5)cc4)nn23)c1 [Example 570] and answer again.
Ans: 0.1 to 1 µM

Q: Another molecule to look at: CC(C)(C)NS(=O)(=O)c1cccc(-c2ccc3cnc(Nc4cccc(OCCN5CCOCC5)c4)nn23)c1 [Example 1001]
Ans: 0.1 to 1 µM

Q: Let us now turn to Cc1nc2cc(Nc3ncc4ccc(-c5cccc(S(=O)(=O)NC(C)(C)C)c5)n4n3)ccc2o1 [Example 600]
Ans: 1 to 10 µM

Q: Please do the same for CN1CCN(C(=O)c2cccc(Nc3ncc4ccc(-c5cccc(S(=O)(=O)NC(C)(C)C)c5)n4n3)c2)CC1 [Example 891] as well.
Ans: 0.1 to 1 µM

Q: What about this molecule? CS(=O)(=O)Nc1ccncc1-c1ccc2cnc(Nc3ccc(N4CCOCC4)cc3)nn12 [Example 1219]
Ans: 1 to 10 µM

Q: // next record COc1ccccc1-c1ccc2cnc(Nc3ccc4cnn(CCN5CCOCC5)c4c3)nn12 [Example 1347]
Ans: 1 to 10 µM

Q: Request: COc1ccccc1-c1ccc2cnc(Nc3ccc4nn(CCN5CCOCC5)cc4c3)nn12 [Example 1351]
Ans: 0.1 to 1 µM

Q: Now try COc1ccc(-c2ccc3cnc(Nc4ccc(OCCN5CCOCC5)cc4)nn23)cn1 [Example 1103] .
Ans: 0.1 to 1 µM

Q: Check CN1CCC(c2ccc(Nc3ncc4ccc(-c5cccc(CCC#N)c5)n4n3)cc2)CC1 [Example 1149] too.
Ans: < 0.1 µM

Q: Another molecule to check: COc1ccccc1-c1ccc2cnc(Nc3ccc(C4=CCN(CC(N)=O)CC4)c(C(F)(F)F)c3)nn12 [Example 952]
Ans: 0.1 to 1 µM

Q: Can you handle CC(C)(C)NS(=O)(=O)c1cccc(-c2ccc3cnc(Nc4ccc(N5CCC(N6CCNC(=O)C6)CC5)cc4)nn23)c1 [Example 562] next?
Ans: 0.1 to 1 µM

Q: Also need CN1CCN(c2ccc(Nc3ncc4ccc(-c5ccc(S(C)(=O)=O)cc5)n4n3)cn2)CC1 [Example 1110] , thanks.
Ans: 0.1 to 1 µM

Q: Next record, please: CN1CCN(CCn2cc(Nc3ncc4ccc(-c5ccccc5N(C)S(C)(=O)=O)n4n3)cn2)CC1 [Example 1212]
Ans: 0.1 to 1 µM

---

- assay.target: ALK (Homo sapiens)
- Construct: host or cells: baculovirus expression system
- procedure.summary: ALK Kinase Assay (ELISA/TRF, PLC-γ substrate)
- Format: biochemical
- setup.conditions: ALK kinase inhibition, 1 μM ATP; read-out: ALK Potency
pIC50: −log10 of the molar value.
Give measured pIC50 for each item. Keep answers brief.

Q: I have this molecule here, Cn1cc(-c2ccc3cnc(Nc4cccc(N5CCCC5=O)c4)nn23)cn1 [Example 967] , and I need its recorded pIC50.
Ans: 5.00 to 6.00

Q: Try this molecule too: CN(c1ccccc1-c1ccc2cnc(-n3ccnc3)nn12)S(C)(=O)=O [Example 622]
Ans: 5.00 to 6.00

Q: Moving on to COc1cc2c(cc1Nc1ncc3ccc(-c4cccc5c4OCC5)n3n1)CCN(C[C@@H](C)O)CC2 [Example 522]
Ans: > 7.00

Q: // query: COc1cc(N2CCC(N3CCOCC3)CC2)ccc1Nc1ncc2ccc(-c3cccc4c3OCCO4)n2n1 [Example 546]
Ans: > 7.00

Q: Check CN1CCC(c2ccc(Nc3ncc4ccc(-c5cccc(S(C)(=O)=O)c5)n4n3)cc2)CC1 [Example 1120] too.
Ans: 6.00 to 7.00

Q: Item: CN(c1cccc(-c2ccc3cnc(Nc4ccc(C5CCN(CC(N)=O)CC5)cc4)nn23)c1)S(C)(=O)=O [Example 959]
Ans: 6.00 to 7.00

Q: Try CCOC(=O)c1ccccc1-c1ccc2cnc(Nc3ccc(N4CCN(C)CC4)cc3)nn12 [Example 1146] next.
Ans: 6.00 to 7.00

Q: Continue with COc1cc2c(cc1Nc1ncc3ccc(-c4cccc5c4OCC5)n3n1)CCN(CCO)CC2 [Example 704]
Ans: > 7.00

Q: Subsequent entry: CC(C)(C)NS(=O)(=O)c1cccc(-c2ccc3cnc(Nc4ccc5c(c4)N(S(C)(=O)=O)CCC5)nn23)c1 [Example 1060]
Ans: 5.00 to 6.00

Q: Follow-up item: COc1ccccc1-c1ccc2cnc(Nc3ccc4nc(C(F)(F)F)[nH]c4c3)nn12 [Example 1305]
Ans: 5.00 to 6.00

Q: Now this one: Cc1ccncc1-c1ccc2cnc(Nc3ccc(N4CCOCC4)cc3)nn12 [Example 1038]
Ans: 5.00 to 6.00

Q: Proceed to COc1cc(C2CCN(CCO)CC2)ccc1Nc1ncc2ccc(-c3ccccc3N(C)S(C)(=O)=O)n2n1 [Example 793]
Ans: > 7.00

Q: Now this one: COc1cc(C2CCN(C(=O)CN(C)C)CC2)ccc1Nc1ncc2ccc(-c3ccccc3OC)n2n1 [Example 815]
Ans: > 7.00

Q: Again, but for COc1ccc(-c2ccc3cnc(Nc4ccc5[nH]c(=O)[nH]c5c4)nn23)cn1 [Example 1309]
Ans: 5.00 to 6.00

Q: What about this molecule? CS(=O)(=O)c1cccc(-c2ccc3cnc(Nc4ccc(Cl)c(OC[C@H]5CCCN5)c4)nn23)c1 [Example 1021]
Ans: 5.00 to 6.00

Q: Same question for COc1cc(N2CCC(N3CCOCC3)CC2)ccc1Nc1ncc2ccc(-c3ccc(F)cc3OC)n2n1 [Example 510] please.
Ans: > 7.00
